System: barnyardgrass (Echinochloa crus-galli, ECHCG)
TEST_METHOD_NOTES: Post-emerge test, greenhouse herbicide activity screening
Format: in vivo
SETUP_CONDITIONS: Echinochloa crus-galli, post-emergence, 336 h; post-emerge, 250 g ai/ha, phytotoxicity rating 0-100 at 14 days after application; read-out: Post-emerge Herbicidal Activity ECHCG

CHEM_SMILES | TESTED_ON | pest or weed control at 250 g/ha / %
CC(C)Oc1c(Cl)cc(F)c(-n2nnn(CCCF)c2=O)c1N | barnyardgrass (Echinochloa crus-galli, ECHCG) | 0
Cc1nn(-c2c(F)cc(Cl)cc2NC(=O)c2ccc3ccccc3c2)c(=O)n1C(F)F | barnyardgrass (Echinochloa crus-galli, ECHCG) | 0
COc1c(Cl)cc(F)c(-n2nc(C)n(C(F)F)c2=O)c1NC(=O)c1ccc2ccccc2c1 | barnyardgrass (Echinochloa crus-galli, ECHCG) | 70
COc1c(Cl)cc(Cl)c(-n2nc(C)n(C(F)F)c2=O)c1NC(=O)c1ccc2ccccc2c1 | barnyardgrass (Echinochloa crus-galli, ECHCG) | 30
